Items are presented alongside their recorded IC50.
Tested on: gel-filtered human platelets
PROTOCOL_DESCRIPTION: Inhibition of aggregation of gel-filtered human platelets after ADP or thrombin stimulation
Type: cell-based
STATED_CONDITIONS: Homo sapiens; platelet aggregation, thrombin stimulation; read-out: IC50 (μM), Thrombin-stimulated
Note: unit µM is implicit; provide only the numeric part.

| ITEM_SMILES | IC50 / µM |
| --- | --- |
| CC(C)[C@H](NC(=O)[C@H](CC(=O)O)NC(=O)CN1C(=O)N[C@@H](Cc2ccc(NC(=N)N)cc2)C1=O)C(=O)O | 3 |

Answer with reported IC50 of "CC(C)[C@H](NC(=O)[C@H](CC(=O)O)NC(=O)CN1C(=O)[C@H](CCCNC(=N)N)N(C)C1=O)C(=O)O"
1.5

Answer with reported IC50 of "CC(C)[C@H](NC(=O)[C@H](CC(=O)O)NC(=O)CCN1C(=O)N[C@@H](CCCCN)C1=O)C(=O)O"
2

Answer with reported IC50 of "NCc1ccc(C=C2NC(=O)N(CC(=O)N[C@@H](CC(=O)O)C(=O)N[C@H](C(=O)O)c3ccccc3)C2=O)cc1"
0.45

* * *

Items are presented alongside their recorded IC50.
Tested on: gel-filtered human platelets
PROTOCOL_DESCRIPTION: Inhibition of aggregation of gel-filtered human platelets after ADP or thrombin stimulation
Assay type: cell-based
STATED_CONDITIONS: Homo sapiens; platelet aggregation, ADP stimulation; read-out: IC50 (μM), ADP-stimulated

Solved cases (3 shown):
| ITEM_SMILES | EXPERIMENTAL_TARGET | IC50 |
| --- | --- | --- |
| CC(C)[C@H](NC(=O)[C@H](CC(=O)O)NC(=O)CCN1C(=O)N[C@@H](CCCCN)C1=O)C(=O)O | gel-filtered human platelets | 6 µM |
| CC(C)[C@H](NC(=O)[C@H](CC(=O)O)NC(=O)CN1C(=O)N[C@@H](Cc2ccc(NC(=N)N)cc2)C1=O)C(=O)O | gel-filtered human platelets | 6 µM |
| CC(C)[C@H](NC(=O)[C@H](CC(=O)O)NC(=O)CN1C(=O)[C@H](CCCNC(=N)N)N(C)C1=O)C(=O)O | gel-filtered human platelets | 4.5 µM |

With those in mind, consider the next compound.
Answer with reported IC50 of "NCc1ccc(C=C2NC(=O)N(CC(=O)N[C@@H](CC(=O)O)C(=O)N[C@H](C(=O)O)c3ccccc3)C2=O)cc1"
0.7 µM

* * *

EXPERIMENTAL_TARGET: fibrinogen receptor (glycoprotein IIb/IIIa) (Homo sapiens, UniProt P05106+P08514)
Construct: its receptor (glycoprotein IIb/IIIa) on intact, gel-filtered human platelets; endogenous in cells
Sequence (P08514 32-887 limits assumed): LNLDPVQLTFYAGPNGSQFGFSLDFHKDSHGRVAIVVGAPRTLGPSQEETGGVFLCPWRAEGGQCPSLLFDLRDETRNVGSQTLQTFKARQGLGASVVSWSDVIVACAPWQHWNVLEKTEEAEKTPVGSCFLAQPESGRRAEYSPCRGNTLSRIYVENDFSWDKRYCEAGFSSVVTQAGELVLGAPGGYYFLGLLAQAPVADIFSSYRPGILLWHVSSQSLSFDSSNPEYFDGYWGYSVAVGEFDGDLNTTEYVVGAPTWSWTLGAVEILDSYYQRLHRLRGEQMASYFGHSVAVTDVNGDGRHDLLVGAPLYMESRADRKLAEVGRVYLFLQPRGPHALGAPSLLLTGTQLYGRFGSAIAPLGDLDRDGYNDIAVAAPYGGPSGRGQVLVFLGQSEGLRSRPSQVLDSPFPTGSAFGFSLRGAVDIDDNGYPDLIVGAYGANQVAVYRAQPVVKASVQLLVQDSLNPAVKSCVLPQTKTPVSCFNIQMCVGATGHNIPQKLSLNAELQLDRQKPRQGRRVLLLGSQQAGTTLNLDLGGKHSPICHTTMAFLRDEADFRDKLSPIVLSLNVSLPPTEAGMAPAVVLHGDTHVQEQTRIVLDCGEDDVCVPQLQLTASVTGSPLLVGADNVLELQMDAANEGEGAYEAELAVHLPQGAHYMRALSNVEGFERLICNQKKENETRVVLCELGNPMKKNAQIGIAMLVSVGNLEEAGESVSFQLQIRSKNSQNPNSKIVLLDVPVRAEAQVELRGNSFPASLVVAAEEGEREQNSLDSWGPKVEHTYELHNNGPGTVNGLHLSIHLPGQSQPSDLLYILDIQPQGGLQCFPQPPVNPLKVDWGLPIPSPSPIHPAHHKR
Sequence (P08514 891-1039 partner limits assumed): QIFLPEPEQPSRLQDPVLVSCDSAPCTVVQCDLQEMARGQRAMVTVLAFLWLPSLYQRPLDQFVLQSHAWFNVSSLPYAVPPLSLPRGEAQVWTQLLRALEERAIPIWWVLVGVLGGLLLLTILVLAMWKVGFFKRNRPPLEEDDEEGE
Sequence (P05106 27-788): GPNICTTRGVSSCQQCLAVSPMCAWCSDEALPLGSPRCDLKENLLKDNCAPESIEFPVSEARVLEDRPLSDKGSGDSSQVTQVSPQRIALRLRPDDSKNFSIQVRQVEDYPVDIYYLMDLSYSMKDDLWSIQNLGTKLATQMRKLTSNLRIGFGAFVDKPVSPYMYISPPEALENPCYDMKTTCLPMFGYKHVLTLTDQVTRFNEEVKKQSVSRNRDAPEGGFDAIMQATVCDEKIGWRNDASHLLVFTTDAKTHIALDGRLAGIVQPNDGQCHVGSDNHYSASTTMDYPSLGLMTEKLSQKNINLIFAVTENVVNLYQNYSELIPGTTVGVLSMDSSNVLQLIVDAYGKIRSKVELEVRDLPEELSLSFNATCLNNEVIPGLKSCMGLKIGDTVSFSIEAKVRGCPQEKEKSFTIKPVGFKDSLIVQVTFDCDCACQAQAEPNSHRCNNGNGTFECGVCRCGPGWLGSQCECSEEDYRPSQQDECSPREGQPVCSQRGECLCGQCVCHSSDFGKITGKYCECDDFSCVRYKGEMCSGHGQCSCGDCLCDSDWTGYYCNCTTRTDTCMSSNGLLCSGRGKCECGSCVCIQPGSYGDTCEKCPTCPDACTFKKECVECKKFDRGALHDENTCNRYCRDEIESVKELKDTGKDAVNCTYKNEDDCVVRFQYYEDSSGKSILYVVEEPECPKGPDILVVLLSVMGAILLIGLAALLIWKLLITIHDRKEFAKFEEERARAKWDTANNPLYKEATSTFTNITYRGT
PROTOCOL_DESCRIPTION: Inhibition of bonding of 125I-fibrinogen to its receptor on intact, gel-filtered human platelets
STATED_CONDITIONS: inhibition of 125I-fibrinogen bonding after stimulation with ADP (10 μM), read-out: K1 (μm), ADP stimulated
RESULT_TYPE: log10 Ki (log10 of the value in nM)
Units before log transform: nM; reported quantity: Ki; transform: log10.

Solved cases (5 shown):
| COMPOUND | log10 Ki |
| --- | --- |
| CC(C)[C@H](NC(=O)[C@H](CC(=O)O)NC(=O)CN1C(=O)NC(Cc2ccc(C(=N)N)cc2)C1=O)C(=O)O (stereo partly drawn) [Example 1] | 1.49 |
| C[C@@H](O)[C@H](NC(=O)[C@H](CC(=O)O)NC(=O)CN1C(=O)NC(Cc2ccc(C(=N)N)cc2)C1=O)C(=O)O (stereo partly drawn) [Example 16] | 2.08 |
| N=C(N)c1ccc(CC2NC(=O)N(CC(=O)N[C@@H](CC(=O)O)C(=O)N[C@@H](Cc3ccccc3)C(=O)O)C2=O)cc1 (stereo partly drawn) [Example 14] | 2.43 |
| N=C(N)c1ccc(CC2NC(=O)N(CC(=O)N[C@@H](CC(=O)O)C(=O)N[C@@H](CCCCN)C(=O)O)C2=O)cc1 (stereo partly drawn) [Example 13] | 1.62 |
| N=C(N)c1ccc(CC2NC(=O)N(CC(=O)N[C@@H](CC(=O)O)C(=O)N[C@@H](Cc3c[nH]c4ccccc34)C(=O)O)C2=O)cc1 (stereo partly drawn) [Example 22] | 2.15 |

With those in mind, consider the next compound.
Answer with reported log10 Ki of CC(C)[C@H](NC(=O)[C@H](CC(=O)O)NC(=O)CCN1C(=O)N[C@@H](CCCCN)C1=O)C(=O)O [Example 32]
3.43

* * *

EXPERIMENTAL_TARGET: fibrinogen receptor (glycoprotein IIb/IIIa) (Homo sapiens, UniProt P05106+P08514)
Construct: its receptor (glycoprotein IIb/IIIa) on intact, gel-filtered human platelets; endogenous in cells
PROTOCOL_DESCRIPTION: Inhibition of bonding of 125I-fibrinogen to its receptor on intact, gel-filtered human platelets
STATED_CONDITIONS: inhibition of 125I-fibrinogen bonding after stimulation with ADP (10 μM), read-out: K1 (μm), ADP stimulated
Items are presented alongside their recorded Ki.
Note: unit nM is implicit; provide only the numeric part.

Answer with reported Ki of "CC(C)[C@H](NC(=O)[C@H](CC(=O)O)NC(=O)CN1C(=O)N[C@@H](Cc2ccc(NC(=N)N)cc2)C1=O)C(=O)O"
710

Answer with reported Ki of "CC(C)[C@H](NC(=O)[C@H](CC(=O)O)NC(=O)CN1C(=O)N[C@@H](Cc2ccc(N)cc2)C1=O)C(=O)O"
2430

Answer with reported Ki of CN(C(=O)[C@H](CC(=O)O)NC(=O)CN1C(=O)NC(Cc2ccc(C(=N)N)cc2)C1=O)[C@H](C(=O)O)c1ccccc1 (stereo partly shown)
1590

* * *

Tested on: gel-filtered human platelets
PROTOCOL_DESCRIPTION: Inhibition of aggregation of gel-filtered human platelets after ADP or thrombin stimulation
Type: cell-based
STATED_CONDITIONS: platelet aggregation, ADP stimulation; read-out: IC50 (μM), ADP-stimulated
RESULT_TYPE: log10(IC50) (log10 of the value in µM)
Units before log transform: µM; reported quantity: IC50; transform: log10.

| MOLECULE | EXPERIMENTAL_TARGET | RECORDED_VALUE |
| --- | --- | --- |
| CCCCCCCCCCCCCCCCOC(=O)[C@@H](NC(=O)[C@H](CC(=O)O)NC(=O)CN1C(=O)NC(Cc2ccc(C(=N)N)cc2)C1=O)c1ccccc1 (stereo partly shown) [Example 17] | gel-filtered human platelets | 0.65 |
| N=C(N)c1ccc(CC2NC(=O)N(CC(=O)N[C@@H](CC(=O)O)C(=O)N[C@@H](Cc3ccccc3)C(=O)O)C2=O)cc1 (stereo partly shown) [Example 14] | gel-filtered human platelets | -0.26 |
| N=C(N)c1ccc(CC2NC(=O)N(CC(=O)NCCC(=O)O)C2=O)cc1 (racemic) [Example 6] | gel-filtered human platelets | 0.74 |
| CC(C)[C@H](NC(=O)[C@H](CC(=O)O)NC(=O)CN1C(=O)N[C@@H](CCCCN)C1=O)C(=O)O [Example 3] | gel-filtered human platelets | 1.48 |
| CC[C@H](C)[C@H](NC(=O)[C@H](CC(=O)O)NC(=O)CN1C(=O)NC(Cc2ccc(C(=N)N)cc2)C1=O)C(=O)O (stereo partly shown) [Example 12] | gel-filtered human platelets | -0.70 |

Send back gel-filtered human platelets log10(IC50) of NCc1ccc(CC2NC(=O)N(CC(=O)N[C@@H](CC(=O)O)C(=O)N[C@H](C(=O)O)c3ccccc3)C2=O)cc1 (stereo partly shown) [Example 19] only.
0.85

Send back gel-filtered human platelets log10(IC50) of N=C(N)c1ccc(CC2NC(=O)N(CC(=O)N[C@@H](CC(=O)O)C(=O)N[C@H](C(=O)O)c3ccccc3)C2=O)cc1 (stereo partly shown) [Example 5] only.
-0.70

Send back gel-filtered human platelets log10(IC50) of CC(C)[C@H](NC(=O)[C@H](CC(=O)O)NC(=O)CN1C(=O)NC(Cc2ccc(C(=N)N)cc2)C1=O)C(=O)OCc1ccccc1 (stereo partly shown) [Example 21] only.
-0.15

Send back gel-filtered human platelets log10(IC50) of CN(C(=O)[C@H](CC(=O)O)NC(=O)CN1C(=O)NC(Cc2ccc(C(=N)N)cc2)C1=O)[C@H](C(=O)O)c1ccccc1 (stereo partly shown) [Example 20] only.
0.65

* * *

EXPERIMENTAL_TARGET: fibrinogen receptor (glycoprotein IIb/IIIa) (Homo sapiens, UniProt P05106+P08514)
Construct: its receptor (glycoprotein IIb/IIIa) on intact, gel-filtered human platelets; endogenous in cells
PROTOCOL_DESCRIPTION: Inhibition of bonding of 125I-fibrinogen to its receptor on intact, gel-filtered human platelets
STATED_CONDITIONS: inhibition of 125I-fibrinogen bonding after stimulation with ADP (10 μM), read-out: K1 (μm), ADP stimulated
Lab note - cut at 0.2 µM for Ki: rule met if strictly below, rule not met if not.

Example cases with answers are listed next.
| COMPOUND | GROUP |
| --- | --- |
| CC(C)[C@H](NC(=O)[C@H](CC(=O)O)NC(=O)CN1C(=O)NC(Cc2ccc(C(=N)N)cc2)C1=O)C(=O)OCc1ccccc1 (stereo partly shown) | rule not met |
| CC(C)[C@H](NC(=O)[C@H](CC(=O)O)NC(=O)CN1C(=O)[C@H](CCCNC(=N)N)N(C)C1=O)C(=O)O | rule not met |
| N=C(N)c1ccc(CC2NC(=O)N(CC(=O)N[C@@H](CC(=O)O)C(=O)N[C@H](C(=O)O)c3ccccc3)C2=O)cc1 (stereo partly shown) | rule met |
| N=C(N)c1ccc(CC2NC(=O)N(CC(=O)NCCC(=O)O)C2=O)cc1 (racemic) | rule not met |
| CC(C)[C@H](NC(=O)[C@H](CC(=O)O)NC(=O)c1cccc(N2C(=O)N[C@@H](CCCNC(=N)N)C2=O)c1)C(=O)O | rule not met |

Please indicate whether the reported Ki of "NCc1ccc(C=C2NC(=O)N(CC(=O)N[C@@H](CC(=O)O)C(=O)N[C@H](C(=O)O)c3ccccc3)C2=O)cc1" is strictly below 0.2 µM.
rule not met

Please indicate whether the reported Ki of CC[C@H](C)[C@H](NC(=O)[C@H](CC(=O)O)NC(=O)CN1C(=O)NC(Cc2ccc(C(=N)N)cc2)C1=O)C(=O)O (stereo partly shown) is strictly below 0.2 µM.
rule met
